- protocol-summary: modulation of TERT promoter-driven luciferase – cell-based, luciferase reporter, human, primary screen (AID 1259240)
- measurement-parameters: A2780 TERT promoter luciferase reporter, 16 h; at 20 µM, fold versus average of vehicle-only wells
value-kind: fold change

INSERT INTO measurements (compound, value_kind, quantitative_readout) VALUES
  ('CC(=O)N(C1=C(N(C)C)C(=O)c2ccccc2C1=O)c1cc(C)cc(C)c1', 'fold change', -1.54),
  ('COc1ccccc1-c1cc(N)n(S(=O)(=O)c2ccc([N+](=O)[O-])cc2)n1', 'fold change', -1.09),
  ('COc1ccc2[nH]cc(S(=O)(=O)c3ccc(C)cc3)c(=O)c2c1', 'fold change', 1.08),
  ('CNC(=O)CN1C(=O)COc2ccc(S(=O)(=O)N3CCOCC3)cc21', 'fold change', -1.1),
  ('COc1ccc(OC(C)c2nc(-c3ccc(OC)cc3)no2)cc1 (stereo not drawn)', 'fold change', 1.61),
  ('O=C(CN1C(=O)c2ccccc2C1=O)Nc1nccs1', 'fold change', -1.42),
  ('COCCn1c(C)cc(C(=O)CSc2nnc3c(C)cc4ccccc4n23)c1C', 'fold change', 1.96),
  ('O=C1c2ccccc2C(=O)N1CCC1=NCCc2ccccc21', 'fold change', -1.59),
  ('CC(CC(=O)N1CCN(c2ccc([N+](=O)[O-])cc2)CC1)CC1=NS(=O)(=O)c2ccccc2N1 (stereo not drawn)', 'fold change', -1.48),
  ('COC(=O)c1ccc(-c2ccc(/C=C3/NC(=O)N(c4ccccc4)C3=O)o2)cc1', 'fold change', -2.59),
  ('CCOC(=O)N1CCC(Nc2c(N(CC)CC)c(=O)c2=O)CC1', 'fold change', 1.22),
  ('CN1C(=O)C(O)(CC(=O)c2ccccc2O)c2cc(Br)ccc21 (stereo not drawn)', 'fold change', 1.07),
  ('COc1ccc(-c2nnc3c4ccccc4c(C)nn23)cc1S(=O)(=O)NC(C)C', 'fold change', -1.07),
  ('CCOC(=O)C1CCN(c2c(Nc3ccc4c(c3)OCCO4)c(=O)c2=O)CC1', 'fold change', -1.02),
  ('Cc1ccc(NC(=O)CC2Sc3ccc(C(F)(F)F)cc3NC2=O)cc1C (stereo not drawn)', 'fold change', -1.24),
  ('Cc1cccc(NC(=O)C2CCCN(S(=O)(=O)c3cnc[nH]3)C2)n1 (stereo not drawn)', 'fold change', -2.48),
  ('CCCOc1ccc(Cc2nn3c(=O)/c(=C\c4cccc(OC(C)=O)c4)sc3nc2=O)cc1', 'fold change', -1.43),
  ('O=C(CC1C(=O)N(c2cccc(Cl)c2)C(=O)N1Cc1cccs1)Nc1ccccc1 (stereo not drawn)', 'fold change', 1.26),
  ('CC1CCCC(C)N1C(=O)CN1C(=O)COc2ccc(S(=O)(=O)N3CCCCCC3)cc21 (stereo not drawn)', 'fold change', -1.25),
  ('CCOC(=O)C1=C(CS(=O)(=O)c2ccc(F)c(C)c2)NC(=O)NC1c1cc(OC)ccc1OC (stereo not drawn)', 'fold change', 1.23),
  ('CCOC(=O)c1c(C)n(C)c2ccc(OCC(O)Cn3nc(C)cc3C)cc12 (stereo not drawn)', 'fold change', -2.1),
  ('COc1cccc(-c2cc(N)n(S(=O)(=O)c3cccc4nsnc34)n2)c1', 'fold change', 1.15),
  ('CCOC(=O)C1=C(CS(=O)(=O)c2ccccc2)NC(=O)NC1c1cc(OC)c(OC)cc1OC (stereo not drawn)', 'fold change', 1.83),
  ('COc1ccc(NC(=O)Nc2c(C)n(C)n(-c3ccccc3)c2=O)cc1', 'fold change', -1.33),
  ('Cc1ccc(N2C(=O)c3n[nH]c(C)c3C2c2ccccc2F)cc1 (stereo not drawn)', 'fold change', 1.63),
  ('C=CCN1CN=C(NS(=O)(=O)c2ccc(C)cc2)NC1', 'fold change', -1.75),
  ('Cc1ccc(-c2nc3ccccc3n3cc4c(=O)n(C)c(=O)n(C)c4c23)cc1', 'fold change', -1.32),
  ('CC1CC(C)CN(C(=O)Cn2c(=O)oc3cc(S(=O)(=O)NC4CCCC4)ccc32)C1 (stereo not drawn)', 'fold change', 1.02),
  ('O=C(NC1CCCCC1)C1CCCN(S(=O)(=O)c2cnc[nH]2)C1 (stereo not drawn)', 'fold change', -1.72),
  ('CC(=O)NCCNC(=O)c1cccn2c(=O)c3c4c(sc3nc12)CCCC4', 'fold change', -1.41),
  ('c1cc2nncn2nc1N1CCN(C2CCCCC2)CC1', 'fold change', -1.21),
  ('CC1CCCN(S(=O)(=O)c2cccc(-c3cn4cccnc4n3)c2)C1 (stereo not drawn)', 'fold change', -1.53),
  ('CCOC(=O)C1CCN(c2c(N3CCC(C(=O)OCC)CC3)c(=O)c2=O)CC1', 'fold change', 1.06),
  ('CCC(C)(C)C(=O)Nc1nc2c(s1)C(=O)CC(C)(C)C2', 'fold change', 1.17),
  ('CCS(=O)(=O)Nc1cccc(C2=NN(S(C)(=O)=O)C(c3cccs3)C2)c1 (stereo not drawn)', 'fold change', -1.32),
  ('COc1cc(/C=C2\SC(N3CCN(C)CC3)=NC2=O)cc(OC)c1OC', 'fold change', -1.05),
  ('CN(C(=O)Cn1c(=O)n(CCCS(=O)(=O)C2CCCCC2)c(=O)c2ccccc21)c1ccccc1', 'fold change', -1.1),
  ('CCc1cc(C)cc(OCC(O)Cn2cnc3ccccc32)c1 (stereo not drawn)', 'fold change', -1.77),
  ('Cc1noc(C(=O)Nc2sc3c(c2C#N)CCC3)c1Cl', 'fold change', 1.31),
  ('Cn1c(CC(=O)NC(C)(C)CO)c(Sc2ccccc2)c2ccccc21', 'fold change', -2.11),
  ('CC1(C)CC(=O)c2sc(NC(=O)Cc3ccc(Br)cc3)nc2C1', 'fold change', -3.4),
  ('O=S(=O)(NCc1ccccn1)c1cccc2cccnc12', 'fold change', -1.29),
  ('O=C(O)c1cc(S(=O)(=O)O)cc(Nc2c3ccccc3nc3ccccc23)c1O', 'fold change', -1.04);
